Molecular target: T1, recombinant human CTLA4 protein with human IgG1 Fc tag at the C-terminus (Acro biosystems, Cat#CT4-H5255) (human, UniProt P16410 37-162)
T1 sequence (looked up): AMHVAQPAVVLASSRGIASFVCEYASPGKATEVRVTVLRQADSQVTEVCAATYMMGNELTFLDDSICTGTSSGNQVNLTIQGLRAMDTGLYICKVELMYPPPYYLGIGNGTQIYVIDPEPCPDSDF
Experiment: cell-based or functional assay
quantity: EC50 of IL-2 release (GS-J1 T cells + GS-C1/CD80 cells + human CTLA4-Fc, IL-2 HTRF) (nM)
Answers are plain numbers, in nM.

The examples below pair each entry with its known result.
mouse anti-CTLA4 monoclonal antibody C1D1 (antibody, V domains shown, mouse mAb purified from hybridoma supernatant) VH: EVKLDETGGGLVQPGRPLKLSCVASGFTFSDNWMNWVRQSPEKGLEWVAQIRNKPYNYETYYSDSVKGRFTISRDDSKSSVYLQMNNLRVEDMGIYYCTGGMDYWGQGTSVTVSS VL: DIQMTQSPASLSASVGETVTITCGASEIIYGALNWYQQKQGKSPQLLIYGATNLADGMSSRFSGSGSGRQYSLKISSLHPDDAATYYCQKILSPPPWTFGGGTKLEIK :: 35.1
mouse anti-CTLA4 monoclonal antibody D1D5 (antibody, V domains shown, mouse mAb purified from hybridoma supernatant) VH: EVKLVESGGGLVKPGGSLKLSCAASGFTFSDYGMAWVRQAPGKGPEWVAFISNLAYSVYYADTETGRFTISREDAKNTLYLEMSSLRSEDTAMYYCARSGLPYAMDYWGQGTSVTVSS VL: DIQMTQTTSSLSASLGDRVTISCRASQDISNYLNWYQQKPDGTVKLLIYYISRLHSGVPSRFSGSGSGTDFSLTISNLEQEDIATYFCQQGRMLPWTFGGGTRLEIK :: 37.5
mouse anti-CTLA4 monoclonal antibody C1G4 (antibody, V domains shown, mouse mAb purified from hybridoma supernatant) VH: EVKLDETGGGLVQPGRPIKLSCVASGFTFSDNWMNWVRQSPEKGLEWVAQIRNKPYNYETYYSDSVKGRFTISRDDSKSSVYLQMNNLRTKDMGIYYCTGGFTYWGQGTLVTVSA VL: DIQMTQSPPSLSASVGETVTITCGASENIYGGLNWYQRKQGKSPQLLIYGATNLADGMSSRFSGSGSGRQYSLKISRLHPDDVATYYCQNVLNTPYTFGGGTKLEIK :: 35.3
mouse anti-CTLA4 monoclonal antibody D1B8 (antibody, V domains shown, mouse mAb purified from hybridoma supernatant) VH: QIQLQQSGPELVKPGASVKISCKASGYTFTDYYINWVKQRPGQGLEWIGWIYPGNNNTRYNEKFKGKATLTIDTSSSTAFMHLSSLTSEDSAVYFCARYYFDYWGQGTTLTVSS VL: DIQMTQSPSSLSASLGERISLTCRASQEITGYLSWLQQKPDGTIKRLIYAASTLDSGVPQRFSGSRSGSDYSLTISSLESEDFADYYCLQYASYPRTFGGGTKLEIK :: 43.6
mouse anti-CTLA4 monoclonal antibody D1B6 (antibody, V domains shown, mouse mAb purified from hybridoma supernatant) VH: EVQLQQSGPELVKPGASVKLSCKASGNTFTTYVLNWVKQKPGQGLEWIGYFNPYNDGIKYNEKFKGKATLTSDKSSNTAYMELSSLTSEDSAVYYCARFEGGGYAMDYWGQGTSVTVSS VL: DIVLTQSPASLAVSLGQRATISCRASQSVGTSRNTYIHWYQQKLGQPPKLLIKYASDLESGVPARFSGSGSGTDFTLNIHPVEEEDTATYYCQHSWEIPYTFGGGTKLEIK :: 36.6

-- ask Request the reported EC50 of IL-2 release (GS-J1 T cells + GS-C1/CD80 cells + human CTLA4-Fc, IL-2 HTRF) associated with mouse anti-CTLA4 monoclonal antibody D1G6 (antibody, V domains shown, mouse mAb purified from hybridoma supernatant) VH: EVQLQQSGPELVKPGASVKLSCKASGNTFTTYVLNWVKQKPGQGLEWIGYFNPYNDAIKYNEKFKGKATLTSDKSSSTAYMELSSLTSEDSAVYYCARFEGGGYAMDYWGQGTSVTVSS VL: DIVLTQSPASLAVSLGQRATISCRASQSVGTSSYSYIHWYQQKPGQPPKLLIKYASDLESGVPARFSGSGSGTDFTLNIHPVEEEDTATYYCQHSWEIPYTFGGGTKLEIK
-- reply 41.5
